- ASSAY NAME: cells;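 further: antiproliferative effect on human UCH2 cells, read out with the Alamar Blue viability assay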
- Assay type: functional, cell-based
- SETTINGS: Homo sapiens, UCH2, 72 h
- Description: Antiproliferative activity against human UCH2 cells measured after 72 hrs by alamar blue assay
hey, just use satisfied if measured IC50 is less than 6 µM, otherwise not satisfied

• C=CC(=O)N1CCC(Oc2cc3c(Nc4ccc(Cl)c(Cl)c4F)ncnc3cc2OC)CC1 = not satisfied
• CNC(=O)CN1CCC(Oc2cc3c(Nc4cccc(Cl)c4F)ncnc3cc2OC)CC1 = satisfied
• CN(C)C/C=C/C(=O)Nc1cc2c(Nc3ccc(F)c(Cl)c3)ncnc2cc1O[C@H]1CCOC1 = not satisfied
• COc1cc(Nc2ncnc3ccc(C(F)(F)F)cc23)cc(OC)c1OC = not satisfied
• COc1cc2c(Nc3ccc(Cl)c(Cl)c3F)ncnc2cc1OC[C@@H]1C[C@@H]2CN(C)C[C@@H]2C1 = satisfied

Please turn your attention to the following entry.
input: Input CN1CCN(CCOc2cc(OC3CCOCC3)c3c(Nc4c(Cl)ccc5c4OCO5)ncnc3c2)CC1 ; condition: IC50 strictly below 6 µM. Does it hold?
output: not satisfied
